System: A498
Assay: NCI tumour cell line growth inhibition, 48 h
Calls of active or inactive are those of the source. Cut-off read from the data, not from the text of the source: active = GI50 up to about 1.1 µM and inactive = higher.
Possible outcomes: active, inactive

[
  {
    "compound": "COc1ccc(C2=Nc3ccccc3NC(=O)C2)cc1",
    "category": "inactive"
  },
  {
    "compound": "O=C(/C=C/c1c(O)nc2ccccc2c1O)CC(=O)C(=O)Nc1cccc(O)c1",
    "category": "inactive"
  },
  {
    "compound": "COc1cc(C2c3cc4c(cc3OC(NCCc3ccccc3)C2C)OCO4)cc(OC)c1OC (stereo unspecified)",
    "category": "active"
  },
  {
    "compound": "Cn1c(-c2cccc(N)c2)[n+](C)c2ccccc21",
    "category": "inactive"
  },
  {
    "compound": "CC(C)=C1CCC(CN(C)C)C1=O (stereo unspecified)",
    "category": "inactive"
  },
  {
    "compound": "Cc1cccc(C)c1NC(=O)CCCC(=O)C1/C(=N/NC(=O)CC#N)CCC/C1=N\\NC(=O)CC#N (stereo unspecified)",
    "category": "inactive"
  }
]

The origin of these recorded values is ChEMBL document CHEMBL1201862.
